assay: Selectivity index, CC50 for african green monkey Vero cells to IC50 for Trypanosoma cruzi 320I01 amastigotes; assay type: functional
VALUE_KIND: Selectivity Index

// query I am curious: what Selectivity Index value has been reported for O[C@@H]1Cc2cc(Cl)ccc2N[C@H](c2ccc(Cl)cc2)C1 (relative stereo) ?
// result >0.8

// query Query Fc1ccc([C@@H]2C[C@@H]3Cc4ccccc4N2O3)cc1 (relative stereo) next
// result >3

// query Next record, please: c1ccc([C@@H]2C[C@@H]3Cc4ccccc4N2O3)cc1 (relative stereo)
// result >3

// query Subsequent entry: Cc1cccc([C@@H]2C[C@H](O)Cc3ccccc3N2)c1 (relative stereo)
// result >3

// query And then Clc1ccc([C@@H]2C[C@@H]3Cc4ccccc4N2O3)cc1 (relative stereo) , what is it?
// result >6

// query Same again, this time with O[C@@H]1Cc2ccccc2N[C@H](c2ccc(Cl)cc2)C1 (relative stereo)
// result >7

// query Request: Fc1ccc2c(c1)C[C@H]1C[C@@H](c3ccc(Cl)cc3)N2O1 (relative stereo)
// result >7

// query What do we get for O[C@@H]1Cc2ccccc2N[C@H](c2ccccc2Cl)C1 (relative stereo) ?
// result >3

// query Another compound to check: Fc1ccccc1[C@@H]1C[C@@H]2Cc3ccccc3N1O2 (relative stereo)
// result >5

// query Now try O[C@@H]1Cc2ccccc2N[C@H](c2ccccc2F)C1 (relative stereo) .
// result >3

// query How about this compound: FC(F)(F)Oc1ccc2c(c1)C[C@H]1C[C@@H](c3ccccc3)N2O1 (relative stereo)
// result >3

// query Same thing, different compound: Clc1cccc(Cl)c1[C@@H]1C[C@@H]2Cc3ccccc3N1O2 (relative stereo)
// result >3

// query Another compound: COc1cccc([C@@H]2C[C@H](O)Cc3ccccc3N2)c1 (relative stereo)
// result >3

// query Moving on to O[C@@H]1Cc2cc(F)ccc2N[C@H](c2ccc(Cl)cc2)C1 (relative stereo)
// result >1.9

// query Also, O[C@@H]1Cc2ccccc2N[C@H](c2cccc(Cl)c2)C1 (relative stereo) please.
// result >3

// query Now consider Clc1ccc([C@@H]2C[C@@H]3Cc4cc(Cl)ccc4N2O3)cc1 (relative stereo) and answer again.
// result >3

// query Entry Clc1ccc2c(c1)C[C@H]1C[C@@H](c3ccc(Br)cc3)N2O1 (relative stereo) please
// result >4

// query What do you have for Fc1ccccc1[C@@H]1C[C@@H]2Cc3cc(Cl)ccc3N1O2 (relative stereo) ?
// result >1

// query Next: O[C@@H]1Cc2cc(OC(F)(F)F)ccc2N[C@H](c2ccccc2)C1 (relative stereo)
// result >1

// query Here is the next compound: O[C@@H]1Cc2cc(Br)ccc2N[C@H](c2ccccc2)C1 (relative stereo)
// result 0.43

// query Another compound to look at: O[C@@H]1Cc2cc(F)ccc2N[C@H](c2ccccc2)C1 (relative stereo)
// result >3

// query Now give it for CC1CS(=O)(=O)CCN1/N=C/c1ccc([N+](=O)[O-])o1 (stereo unspecified) [NIFURTIMOX] too.
// result 26.7

// query Param item: O[C@@H]1Cc2cc(Cl)ccc2N[C@H](c2ccc(Br)cc2)C1 (relative stereo)
// result >0.6

// query Try this compound next: Fc1ccc2c(c1)C[C@H]1C[C@@H](c3ccccc3)N2O1 (relative stereo)
// result >3

// query Check O[C@@H]1Cc2cc(Cl)ccc2N[C@H](c2ccccc2)C1 (relative stereo) too.
// result >2

// query Cool, now Clc1ccc2c(c1)C[C@H]1C[C@@H](c3ccccc3)N2O1 (relative stereo)
// result >3
